target_entity: cDNA-expressed human hepatic CYP3A4 (Homo sapiens (Human), UniProt P08684)
Sequence (P08684 whole entry): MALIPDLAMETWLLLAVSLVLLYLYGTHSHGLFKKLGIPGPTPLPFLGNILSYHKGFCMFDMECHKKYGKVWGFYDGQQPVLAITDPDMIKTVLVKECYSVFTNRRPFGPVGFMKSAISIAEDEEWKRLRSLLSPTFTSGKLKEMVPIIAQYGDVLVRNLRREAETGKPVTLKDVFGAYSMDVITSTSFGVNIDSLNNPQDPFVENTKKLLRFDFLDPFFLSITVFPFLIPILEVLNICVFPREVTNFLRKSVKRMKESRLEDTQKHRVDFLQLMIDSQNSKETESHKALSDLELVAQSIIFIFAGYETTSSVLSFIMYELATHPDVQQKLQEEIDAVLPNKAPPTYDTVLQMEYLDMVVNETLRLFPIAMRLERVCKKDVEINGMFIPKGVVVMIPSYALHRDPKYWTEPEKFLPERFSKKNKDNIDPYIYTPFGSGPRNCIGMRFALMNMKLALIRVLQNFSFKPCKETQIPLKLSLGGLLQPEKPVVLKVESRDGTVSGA
method: Measurement of CYP (IC50 of P450 CYP3A4), BFC substrate
Type: in vitro ADME
condition_context: 20 minutes
pIC50: −log10 of the molar value.

>  <compound>
C=CCN1CC(=O)N2[C@@H](Cc3ccc(O)cc3)C(=O)N(Cc3cccc4c(C(=O)N(C)CCN5CCOCC5)cn(C)c34)C[C@@H]2N1C(=O)NCc1ccccc1 [Compound F-26]

>  <pIC50>
5.54

$$$$
>  <compound>
C=CCN1CC(=O)N2[C@@H](Cc3ccc(O)cc3)C(=O)N(Cc3cccc4c(C(=O)N5CC(N6CCOCC6)C5)cn(C)c34)C[C@@H]2N1C(=O)NCc1ccccc1 [Compound E-72]

>  <pIC50>
5.22

$$$$
>  <compound>
C=CCN1CC(=O)N2[C@@H](Cc3ccc(O)cc3)C(=O)N(Cc3cccc4c(-c5ccc(C(=O)N6CCN(S(C)(=O)=O)CC6)nc5)cn(C)c34)C[C@@H]2N1C(=O)NCc1ccccc1 [Compound D-90]

>  <pIC50>
5.16

$$$$
>  <compound>
C=CCN1CC(=O)N2C(CN(Cc3cccc4c(C(=O)Nc5ccc(NCCN(CC)CC)nc5)cn(C)c34)C(=O)[C@@H]2Cc2ccc(O)cc2)N1C(=O)NCc1ccccc1 (some centres unmarked) [Compound G-24]

>  <pIC50>
5.34

$$$$
>  <compound>
C=CCN1CC(=O)N2[C@@H](Cc3ccc(O)cc3)C(=O)N(Cc3cccc4c(C(=O)N5CCN(C6CCN(C)CC6)CC5)cn(C)c34)C[C@@H]2N1C(=O)NCc1ccccc1 [Compound E-64]

>  <pIC50>
5.07

$$$$
>  <compound>
C=CCN1CC(=O)N2[C@@H](Cc3ccc(O)cc3)C(=O)N(Cc3cccc4c(C(=O)N5CCN6CCN(C(C)=O)CC6C5)cn(C)c34)C[C@@H]2N1C(=O)NCc1ccccc1 (some centres unmarked) [Compound E-44]

>  <pIC50>
4.82

$$$$
>  <compound>
C=CCN1CC(=O)N2[C@@H](Cc3ccc(O)cc3)C(=O)N(Cc3cccc4c(C(=O)Nc5ccc(F)nc5)cn(C)c34)C[C@@H]2N1C(=O)NCc1ccccc1 [Compound G-1]

>  <pIC50>
5.53

$$$$
>  <compound>
C=CCN1CC(=O)N2C(CN(Cc3cccc4c(C(=O)Nc5ccc(N6CCNCC6)nc5)cn(C)c34)C(=O)[C@@H]2Cc2ccc(O)cc2)N1C(=O)NCc1ccccc1 (some centres unmarked) [Compound G-39]

>  <pIC50>
5.56

$$$$
>  <compound>
C=CCN1CC(=O)N2[C@@H](Cc3ccc(O)cc3)C(=O)N(Cc3cccc4c(C(=O)N(C)NC)cn(C)c34)C[C@@H]2N1C(=O)NCc1ccccc1 [Compound F-53]

>  <pIC50>
5.63

$$$$
>  <compound>
C=CCN1CC(=O)N2[C@@H](Cc3ccc(O)cc3)C(=O)N(Cc3cccc4c(C(=O)NCCCC(=O)OC)cn(C)c34)C[C@@H]2N1C(=O)NCc1ccccc1 [Compound F-23]

>  <pIC50>
5.46

$$$$
>  <compound>
C=CCN1CC(=O)N2[C@@H](Cc3ccc(O)cc3)C(=O)N(Cc3cccc4c(C(=O)NCc5ccnc(N(C)C)c5)cn(C)c34)C[C@@H]2N1C(=O)NCc1ccccc1 [Compound F-48]

>  <pIC50>
5.66

$$$$
